target_under_test: T1, Cynomolgus monkey glycophorin A on Cynomolgus monkey red blood cells or red blood cell membranes (Cynomolgus monkey)
T1 construct: whole, on cells; also called Cyno RBC; Cynomolgus monkey RBC membranes
test_method_notes: Fab 7 ug/ml on intact cyno RBC, unbound Fab by ELISA; pre-dilution
# Lookup of reported percentage of input antibody bound keyed by entry
Report only the number, with the unit % understood.

binder	property_name	unit_of_measure	numeric_result
TPP-7797, affinity matured 6C12 Fab (Fab, V domains shown, Tested as Fab) VH: EVQLVQSGAEVKKPGASVKVSCKASGYTFTTYTIHWVRQAPGQGLEWMGYINPSSGYTRYNPKFKGRVTMTRDKSTSTAYMELRSLRSDDTAVYYCWTGRRDYWGQGTTVTVSS VL: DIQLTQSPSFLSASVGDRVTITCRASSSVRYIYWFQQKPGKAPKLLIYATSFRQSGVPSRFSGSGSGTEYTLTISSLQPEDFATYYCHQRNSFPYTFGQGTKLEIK	percentage of input antibody bound	%	79

Now take the following binder into account.
Asked: Can you look up the measured percentage of input antibody bound of TPP-7783, affinity matured 6C12 Fab (Fab, V domains shown, Tested as Fab) VH: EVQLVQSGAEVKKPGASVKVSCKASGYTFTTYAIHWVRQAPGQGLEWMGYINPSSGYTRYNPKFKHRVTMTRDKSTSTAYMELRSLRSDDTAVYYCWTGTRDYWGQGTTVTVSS VL: DIQLTQSPSFLSASVGDRVTITCRASSSVRYIYWFQQKPGKAPKLLIYATSFRRSGVPSRFSGSGSGTEYTLTISSLQPEDFATYYCHQRNSFPYTFGQGTKLEIK for me?
Given back: 72
